src = patent US20210087522

- tgt: T1, FNPCP, CP of an uncharacterized NRP gene cluster from Fischerella
- T1 chain: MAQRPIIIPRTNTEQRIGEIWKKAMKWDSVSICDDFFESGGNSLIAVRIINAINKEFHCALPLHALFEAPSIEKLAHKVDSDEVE

| protein | kcat/Km (M⁻¹ s⁻¹) |
| --- | --- |
| SPPT, Sfp-like phosphopantetheinyl transferase (PPTase) from Synechocystis sp. PCC6803 (protein) MLPQPQIWLCPTDRPLIPGYQALLSSEEMARGERYQRPQDKQRFLTMRLALRILLARQLDCLPQQLQFTYGPQGKPELVDRERRSPWFNVAHSGNYGLIGLSTEGEIGVDLQIMLPKPHYLKLAKRFFAPQEVQQLESLEGEKRTKLFYQLWTAKEAFLKATGKGISGGLNQVIPDENLAKYQYLPDSGDTNHWRLSSQPLLADQGSNDNYWMAIAWCTNEVNQVESNYLPNIQPFQWPRNLDSLP | 23300 |
| APPT, Sfp-like phosphopantetheinyl transferase (PPTase) from Anabaena sp. PCC7120 (protein) MLQHTWLPKPPNLTLLSDEVHLWRIPLDQPESQLQDLAATLSSDELARANRFYFPEHRRRFTAGRGILRSILGGYLGVEPGQVKFDYESRGKPILGDRFAESGLLFNLSHSQNLALCAVNYTRQIGIDLEYLRPTSDLESLAKRFFLPREYELLRSLPDEQKQKIFFRYWTCKEAYLKATGDGIAKLEEIEIALTPTEPAKLQTAPAWSLLELVPDDNCVAAVAVAGFGWQPKFWHY | 16700 |
| MPPT, Sfp-like phosphopantetheinyl transferase (PPTase) from Microcystis aeruginosa NIES843 (protein) MFISTDEVHLYFISLDPSGDRLETLASLLSEDEIIRANRYHFPEHKRRFLVARGCLREILGSYLAISPEKIEFIYSERGKPSINYQLQFNLSHSEEMAICGLTLTARIGVDLEKMRQMKDLDSLTKRFFCAREHELVEKSAEKEKLFFQLWTAKEAYLKAVGTGISGGLDRVEVGLNPLKLDNVAGEWQLWTAAIGDNYRATVVIEGSDRVIKTFGLSDL | 21700 |
| Sfp, phosphopantetheinyl transferase from Bacillus subtilis (protein) MKIYGIYMDRPLSQEENERFMTFISPEKREKCRRFYHKEDAHRTLLGDVLVRSVISRQYQLDKSDIRFSTQEYGKPCIPDLPDAHFNISHSGRWVIGAFDSQPIGIDIEKTKPISLEIAKRFFSKTEYSDLLAKDKDEQTDYFYHLWSMKESFIKQEGKGLSLPLDSFSVRLHQDGQVSIELPDSHSPCYIKTYEVDPGYKMAVCAAHPDFPEDITMVSYEELL | 20000 |
